# maps each entry to its A549-CRAF BP 100 nM, 2 h
Tested on: phospho-MEK in A549 cells
EXPERIMENTAL DETAILS: Cell-based pMEK (pMEK:tMEK, CRAF bypass) in A549 cells
ASSAY SETUP: 2 h, pMEK to total MEK normalized to DMSO control
Procedure: Materials and Methods: A549 or A375 cells were seeded in 6-well plates at an appropriate seeding density on day 0. […] Protein concentration of the lysate was determined using Bradford Reagent (analyzed using SpectraMax M2E) and diluted to 1 mg/mL or pERK or 1.5 mg/mL for pMEK analysis. […] A549 or […] cells were treated in duplicate for two hours with compounds at varying concentrations. […] After storage, the lysate was quantified with the Bradford assay. […]
API doc: respond with a numeric literal and nothing else, no unit.

Example compounds with recorded A549-CRAF BP 100 nM, 2 h:
COMPOUND	SYSTEM	REPORTED METRIC	MEASURED VALUE
CCCN(C)Cc1c(Cc2cccc(NS(=O)(=O)NC)c2F)c(=O)oc2cc(OC(=O)N(C)C)ccc12 [Compound 81]	phospho-MEK in A549 cells	A549-CRAF BP 100 nM, 2 h	78.3
CNS(=O)(=O)Nc1cccc(Cc2c(CNc3cncs3)c3ccc(OC(=O)N(C)C)cc3oc2=O)c1F [Compound 91]	phospho-MEK in A549 cells	A549-CRAF BP 100 nM, 2 h	84.2

Proceeding to the next compound to report its A549-CRAF BP 100 nM, 2 h.
Could you share which A549-CRAF BP 100 nM, 2 h value was measured for CNS(=O)(=O)Nc1cccc(Cc2c(CNc3ccsc3)c3ccc(OC(=O)N(C)C)cc3oc2=O)c1F [Compound 90] ? 71

---

SYSTEM: hERG (Homo sapiens)
Sequence (Q12809 whole entry): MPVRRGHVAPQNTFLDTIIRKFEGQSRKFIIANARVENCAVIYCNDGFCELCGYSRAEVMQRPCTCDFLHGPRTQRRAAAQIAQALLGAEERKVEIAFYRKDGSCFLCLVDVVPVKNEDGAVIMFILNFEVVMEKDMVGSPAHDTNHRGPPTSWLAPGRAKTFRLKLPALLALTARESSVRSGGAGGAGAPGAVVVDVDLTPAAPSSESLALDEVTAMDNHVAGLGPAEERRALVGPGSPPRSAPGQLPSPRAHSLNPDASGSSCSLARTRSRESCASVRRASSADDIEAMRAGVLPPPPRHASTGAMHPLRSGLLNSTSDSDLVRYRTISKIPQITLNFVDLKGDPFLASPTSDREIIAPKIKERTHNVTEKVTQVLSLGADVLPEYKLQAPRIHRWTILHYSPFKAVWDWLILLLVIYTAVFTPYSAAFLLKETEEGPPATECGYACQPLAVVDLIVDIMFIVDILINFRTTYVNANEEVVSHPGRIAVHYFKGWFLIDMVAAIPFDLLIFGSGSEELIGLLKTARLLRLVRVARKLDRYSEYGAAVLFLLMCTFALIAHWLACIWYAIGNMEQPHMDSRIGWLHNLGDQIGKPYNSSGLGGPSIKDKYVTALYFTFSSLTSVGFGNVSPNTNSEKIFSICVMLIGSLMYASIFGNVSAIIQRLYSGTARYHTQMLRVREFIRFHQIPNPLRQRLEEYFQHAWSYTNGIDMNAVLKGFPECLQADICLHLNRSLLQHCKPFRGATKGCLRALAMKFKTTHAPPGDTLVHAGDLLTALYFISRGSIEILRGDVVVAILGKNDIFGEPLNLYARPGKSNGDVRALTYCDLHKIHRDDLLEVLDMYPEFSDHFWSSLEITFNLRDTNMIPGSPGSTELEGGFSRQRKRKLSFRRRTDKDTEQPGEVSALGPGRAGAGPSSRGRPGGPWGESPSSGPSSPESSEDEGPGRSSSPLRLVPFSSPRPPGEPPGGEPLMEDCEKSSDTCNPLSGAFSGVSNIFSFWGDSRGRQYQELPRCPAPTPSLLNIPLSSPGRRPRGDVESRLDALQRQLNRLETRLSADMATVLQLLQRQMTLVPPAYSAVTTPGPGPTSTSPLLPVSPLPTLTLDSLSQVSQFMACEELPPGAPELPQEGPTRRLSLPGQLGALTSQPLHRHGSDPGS
EXPERIMENTAL DETAILS: cell-based
Structures can show the parent of a compound that is named as a salt.
REPORTED METRIC: IC50 (µM)
Unit µM implied. Number only.

MOLECULE	UNIT TAG	IC50
CNS(=O)(=O)Nc1cccc(Cc2c(CN3CCNCC3)c3cc(Cl)c(OC(=O)N(C)C)cc3oc2=O)c1Cl [Compound 256, hydrochloride]	µM	21.6
CCS(=O)(=O)Nc1cccc(Cc2c(CN3CCNCC3)c3cc(Cl)c(OC(=O)N(C)C)cc3oc2=O)c1Cl [Compound 257, hydrochloride]	µM	8.4
CCS(=O)(=O)Nc1cccc(Cc2c(CN3CCNCC3)c3cc(F)c(OC(=O)N(C)C)cc3oc2=O)c1Cl	µM	18.1
CCN(C)Cc1c(Cc2cccc(NS(=O)(=O)NC)c2F)c(=O)oc2cc(OC(=O)N(C)C)c(F)cc12	µM	19.4

Proceeding to the next molecule to report its IC50.
Could you share which IC50 value was measured for CCN(C)Cc1c(Cc2cccc(NS(=O)(=O)NC)c2Cl)c(=O)oc2cc(OC(=O)N(C)C)ccc12 ? 16.1

---

EXPERIMENTAL DETAILS: Plasma stability, rat plasma (Wistar Han / wistar hannover; Table 5 head SD Rat)
Assay type: in vitro ADME
ASSAY SETUP: Wistar Hannover, rat, plasma, pH 7.4
REPORTED METRIC: half-life at 2 μM

Could you share which half-life at 2 μM value was measured for CC(C)[N+](C)(CCOC(=O)C1c2ccccc2Oc2ccccc21)C(C)C [Propantheline, reference compound] ? > 2 h
